test system: MCF7 breast; experiment: NCI-60 one-dose screen, 48 h (100 = growth as untreated, 0 = no growth, -100 = all killed); details: 10 µM unless noted
About 83,000 compounds went through this panel and 20% of them were active in at least one assay; those are over-represented in the sample as a whole. Active and inactive are the calls of the source. The calls were made as follows: active = growth percent below 10; inactive = the rest.
measurement.label: growth

molecule | growth
O=C1C2CCC1C(N1CCCC1)CC2 (stereo not given) | 94.7% (inactive)
COc1cccc2c1c(C(=O)C(=O)Nc1ccn[nH]1)cn2Cc1ccc(F)cc1 | 92.3% (inactive)
CN1C(=O)N[C@H]2[C@@H]3NC(=O)c4ccc(Br)n4[C@@H]3C[C@]21O | -4.96% (active)
CC(C)(C)C(=O)OCOP(=O)(OCOC(=O)C(C)(C)C)C1CCCN(O)C1=O (stereo not given) | 0.807% (active)
C=C1C[C@](OC)([C@H](O)C(=O)N[C@@H](OC)[C@@H]2C[C@@H](O)C(C)(C)[C@@H](C[C@@H](COC)OC)O2)O[C@H](C)[C@@H]1C | -52.6% (active)
CNC(=O)Oc1ccc(C(C)(C)C)cc1OC(=O)NC | 93.9% (inactive)
COC(=O)CCc1c[nH]c2ccc(N(CCCl)CCCl)cc12 | 30.9% (inactive)
Fc1ccc(C2=CCNCC2)cc1 | 93.9% (inactive)

Hi! Can you tell me growth for each of these molecules?
1. COC(=O)[C@@H](C)C[C@H](Cc1ccccc1)NC(=O)c1csc([C@@H](C[C@H](C(C)C)N(C)C(=O)[C@@H](NC(=O)C23CC(NC(C)=O)(C2)C3)C2CC2)OC(C)=O)n1
2. CC(=O)OCc1cc[c]([Hg][Cl])o1
3. COC(=O)[C@H](C[C@H](Cc1ccccc1)NC(=O)c1csc([C@@H](C[C@H](C(C)C)N(C)C(=O)[C@@H](NC(=O)[C@H]2CCCCN2C)C(C)C)OC(C)=O)n1)NC(=O)OCc1ccccc1
4. CNCc1cccnc1
5. CC[C@H](C)[C@@H]([C@@H](CC(=O)N1CCC[C@H]1[C@H](OC)[C@@H](C)C(=O)N[C@H](C)[C@@H](O)c1ccccc1)OC)N(C)C(=O)[C@@H](NC(=O)[C@@H](NC)C(C)C)C(C)C
6. N#Cc1c(Br)n(C2OC(CO)C(O)C2O)c2ncnc(N)c12 (stereo not given)
7. C/C(=C\c1ccn(-c2ccc(N)cc2)n1)[C@@H]1C[C@@H]2O[C@]2(C)CCC[C@H](C)[C@H](O)[C@@H](C)C(=O)C(C)(C)[C@@H](O)CC(=O)O1
8. C[N+](C)(C)Cc1cc(Cl)ccc1O

18.9% (inactive)
20.2% (inactive)
29.4% [8.5 µM] (inactive)
105% (inactive)
15.3% (inactive)
3.47% (active)
19.1% (inactive)
104% (inactive)

###

test system: NCI-H460 lung; experiment: NCI-60 one-dose screen, 48 h (100 = growth as untreated, 0 = no growth, -100 = all killed); conditions: 10 µM unless noted
The panel holds about 83,000 compounds, 20% with a hit somewhere; the sample as a whole holds those more often.
Can you tell me growth for the items I'm about to list?
One number for each entry, in %.

compound | measurement.label | endpoint.result
Cc1ccc(N2COOC3(OOC2)C2CC4CC(C2)CC3C4)cc1 | growth | 103
C[C@]12CCc3sc(-c4cccc(F)c4)nc3C1=CC[C@@H]1[C@@H]2CC[C@]2(C)C(=O)CC[C@@H]12 | growth | 53.9

# compound CC12CCC=CC1CCC1C2CCC2(C)C(c3ccc(=O)oc3)CCC12O (stereo not drawn) ; its growth = -69.3

###

tested on: PC-3 prostate; experiment: NCI-60 one-dose screen, 48 h (100 = growth as untreated, 0 = no growth, -100 = all killed); settings: 10 µM unless noted
Compounds without any hit were thinned out: in the full panel of roughly 83,000, 20% have a hit.
measurement.label: growth (%)
One number for each entry, in %.

compound | assayed.system | growth (%)
CC[C@H](C)[C@H](NC(=O)[C@H]1CCCCN1C)C(=O)N(C)[C@H](C[C@@H](O)c1nc(C(=O)N[C@@H](Cc2ccccc2)C[C@H](C)C(=O)O)cs1)C(C)C | PC-3 prostate | 81.2

Hi! Can you tell me growth for each of these compounds?
1. COc1cccc2c1c(C(=O)C(=O)Nc1ccn[nH]1)cn2Cc1ccc(F)cc1
2. O=C1OCC2=C1C(c1ccccc1)c1cc3c(cc1N2)OCO3 (stereo not drawn)

1. 98.3
2. 25.9

###

tested on: M14 melanoma; assay: NCI-60 one-dose screen, 48 h; details: 10 µM unless noted
The panel holds about 83,000 compounds, 20% with a hit somewhere; the sample as a whole holds those more often. Activity calls are given as the source filed them. Rule for the calls: active = growth percent below 10; inactive = the rest.
One label from this list, please: yes (1) (active), no (0) (inactive)

compound | label.class
COC(=O)[C@@H](C)C[C@H](Cc1ccccc1)NC(=O)c1csc([C@@H](C[C@H](C(C)C)N(C)C(=O)[C@@H](NC(=O)[C@H]2CCCCN2C)C(C(F)(F)F)C(F)(F)F)OC(C)=O)n1 | yes (1)
O=c1[nH]c2ccc([N+](=O)[O-])cc2c(=O)o1 | no (0)

Answer briefly: the call reported for CCCCCSC1C2C(=O)C(Br)=CC13CCNc1c(O)c4c5c(c13)=[N+]2CCC=5C=N4 (stereo not given) in this assay.
yes (1)

Answer briefly: the call reported for COC(=O)[C@@H](C[C@H](Cc1ccccc1)NC(=O)c1csc([C@@H](C[C@H](C(C)C)N(C)C(=O)[C@@H](NC(=O)[C@H]2CCCCN2C)C(C)C)OC(C)=O)n1)NC(=O)OCc1ccccc1 in this assay.
yes (1)

Answer briefly: the call reported for COC(=O)[C@@H](C)C[C@H](Cc1ccccc1)NC(=O)c1nc([C@@H](C[C@H](C(C)C)N(C)C(=O)[C@@H](NC(=O)[C@H]2C[C@H](O)CCN2C)C(C)C)OC(C)=O)sc1C(C)C in this assay.
yes (1)

###

tested on: HCT-15 colon; test: NCI-60 one-dose screen, 48 h; settings: 10 µM unless noted
Compounds without any hit were thinned out: in the full panel of roughly 83,000, 20% have a hit. Active and inactive are the calls of the source. The calls were made as follows: active = growth percent below 10; inactive = the rest.
One label from this list, please: active, inactive

Answer briefly: the call reported for COc1cc(/C=C\c2cc(OC)c(OC)c(OC)c2)cc(N/C=C\C(=O)c2cc(OC)c(OC)c(OC)c2)c1OC in this assay.
inactive

Answer briefly: the call reported for COC(=O)[C@@H](C)C[C@H](Cc1ccccc1)NC(=O)c1csc([C@@H](C[C@H](C(C)C)N(C)C(=O)[C@@H](NC(=O)[C@H]2CCCN2C)C2CC2)OC(C)=O)n1 in this assay.
inactive

Answer briefly: the call reported for COc1cc2c(cc1OCc1ccccc1)C(CC(C)C)=[N+](C)CC2 in this assay.
inactive

Answer briefly: the call reported for COc1cc(/C=C\c2cc(OC)c(OC)c(OC)c2)cc(NS(=O)(=O)c2cccc(Cl)c2)c1OC in this assay.
inactive

Answer briefly: the call reported for CC(=O)[C@H]1CC[C@H]2[C@@H]3CC[C@H]4C[C@H](N)CC[C@]4(C)[C@H]3CC[C@]12C in this assay.
inactive

Answer briefly: the call reported for O=C1NC(=O)C(=Cc2cn(C(=O)c3ccccc3)c3ccccc23)C(=O)N1 in this assay.
inactive

Answer briefly: the call reported for CCOC(=O)[C@@H](C)C[C@H](Cc1ccccc1)NC(=O)c1csc([C@@H](C[C@H](C(C)C)N(C)C(=O)[C@@H](NC(=O)[C@H]2CCCCN2C)C(C)(C)CC)OC(C)=O)n1 in this assay.
active

Answer briefly: the call reported for CC1(C)N=C(N)N=C(N)N1c1ccc(CCCCc2ccc(Cl)c(S(=O)(=O)F)c2)c(Cl)c1 in this assay.
inactive

Answer briefly: the call reported for CCOC(=O)c1c(C)n(Cc2ccccc2)c2cc(CN(C)C)c(O)cc12 in this assay.
inactive

Answer briefly: the call reported for COC(=O)[C@@H](C)C[C@H](Cc1ccccc1)NC(=O)c1nc([C@@H](C[C@H](C(C)C)N(C)C(=O)[C@@H](NC(=O)[C@H]2C[C@H](O)CCN2C)C(C)C)OC(C)=O)sc1C(C)C in this assay.
active

###

test system: UACC-62 melanoma; test: NCI-60 one-dose screen, 48 h; conditions: 10 µM unless noted
This is part of a sample that, as a whole, favours compounds with a hit. Of some 83,000 tested, about 20% had one in any assay. The source made the active and inactive calls. Rule for the calls: active = growth percent below 10; inactive = the rest.
One label from this list, please: active, inactive

Known results for compounds:
compound | label.class
C[Se]C(=O)c1ccccc1OC(C)=O | inactive
O=C1N[C@@H]2[C@@H](O)[C@@H](O)[C@H](O)C[C@H]2c2cc3c(c(O)c21)OCO3 | active

Answer briefly: the call reported for CNC12C3C4C1C1C2C3C41C(=O)N[C@H](C(=O)N(C)[C@H](C[C@@H](OC(C)=O)c1nc(C(=O)N[C@@H](Cc2ccccc2)C[C@H](C)C(=O)OC)cs1)C(C)C)C1CC1 (stereo partly drawn) in this assay.
inactive

The reported numbers originate from PubChem BioAssay (NCI).
